What cell viability was measured for each of the following?
- Test system: Mono-Mac-6
- Method Summary: cell viability (% survival relative to DMSO control, bortezomib = 0%); higher = less cytotoxic
- Test Settings: 1 nM; 72 h
Give bare numbers, in %.

Consider the reported cell viability for these molecules:
CO[C@H]1C[C@@H]2CC[C@@H](C)[C@@](O)(O2)C(=O)C(=O)N2CCCC[C@H]2C(=O)O[C@H]([C@H](C)C[C@@H]2CC[C@@H](OC(=O)C(C)(CO)CO)[C@H](OC)C2)CC(=O)[C@H](C)/C=C(\C)[C@@H](O)[C@@H](OC)C(=O)[C@H](C)C[C@H](C)/C=C/C=C/C=C/1C    99.2
O=C([O-])CC(O)(C(=O)[O-])C(O)C(=O)[O-].[K+].[K+].[K+] (stereo not drawn) [Hydroxycitrate]    87.8

Turning now to a further record.
Task: Value wanted: cell viability (Mono-Mac-6) of entry CN(CCCOc1ccc(Cc2ccccc2)cc1)CCC(=O)O
Result: 106

* * *

- Tested on: HL-60
- Method Summary: cell viability (% survival relative to DMSO control); higher = less cytotoxic
- Test Settings: 1 µM; 72 h; co-treatment: AZD3965 100 nM
Where a name gives a salt, the structure may show the parent alone.
Property: cell viability (%)
Answers are plain numbers, in %.

CN1CCN(CCCN2c3ccccc3Sc3ccc(C(F)(F)F)cc32)CC1    101
Cc1c(Cl)cccc1S(=O)(=O)Nc1nc(CC(=O)N2CCN(C)CC2)cs1    98.1
CCN(CCO)CCCC(C)Nc1ccnc2cc(Cl)ccc12 (configuration not stated) [Hydroxychloroquine sulfate]    96.7
N#C/C(=C\c1ccc(O)cc1)C(=O)O [alpha-cyano-4-hydroxycinnamic acid]    101
CC(C)CC(=O)N[C@H](C(=O)N[C@H](C(=O)N[C@@H](CC(C)C)[C@@H](O)CC(=O)N[C@@H](C)C(=O)N[C@@H](CC(C)C)[C@@H](O)CC(=O)O)C(C)C)C(C)C    102
Cc1cc(CS(=O)(=O)c2ccccc2)cc(OCc2ccc(CN3CCC[C@@H]3CO)cc2)c1 [PF 543 hydrochloride]    95.6

Turning now to a further record.
Task: Value wanted: cell viability (HL-60) of entry CCCCCOC(=O)Nc1nc(=O)n([C@@H]2O[C@H](C)[C@@H](O)[C@H]2O)cc1F
Result: 102

* * *

- Test system: NOMO-1
- Method Summary: cell viability (% survival relative to DMSO control, bortezomib = 0%); higher = less cytotoxic
- Test Settings: 100 nM; 72 h
Where a name gives a salt, the structure may show the parent alone.
What cell viability was measured for each of the following?
One number for each entry, in %.

C=CCN(C)CCCCCCOc1ccc(C(=O)c2ccc(Br)cc2)c(F)c1.O=C(O)/C=C/C(=O)O [Ro 48-8071 fumarate]    98.1
O=C(O)CC[N+](=O)[O-]    101
O=C(/C=C/c1ccc(O)c(O)c1)OCCc1ccccc1    86.1

Could you report cell viability for every entry in the following list?
1. C[C@]12C=CC(=O)C=C1CC[C@@H]1[C@@H]2[C@@H](O)C[C@@]2(C)[C@H]1CC[C@]2(O)C(=O)CO
2. CN(Cc1cnc2nc(N)nc(N)c2n1)c1ccc(C(=O)N[C@@H](CCC(=O)O)C(=O)O)cc1 [Methotrexate]
3. CCc1oc2ccccc2c1C(=O)c1cc(Br)c(O)c(Br)c1
4. CC[C@H](C)[C@H](N)C(=O)N1CCSC1
5. CCN(CCO)CCCC(C)Nc1ccnc2cc(Cl)ccc12 (stereo not drawn) [Hydroxychloroquine sulfate]

Result:
1: 109; 2: 40.4; 3: 94.8; 4: 99.6; 5: 98.8

Could you report cell viability for every entry in the following list?
1. CC(C)CC(=O)N[C@H](C(=O)N[C@H](C(=O)N[C@@H](CC(C)C)[C@@H](O)CC(=O)N[C@@H](C)C(=O)N[C@@H](CC(C)C)[C@@H](O)CC(=O)O)C(C)C)C(C)C
2. N[C@@H](CC(=O)N1CCn2c(nnc2C(F)(F)F)C1)Cc1cc(F)c(F)cc1F
3. CN(CCOc1ccc(Cc2sc(O)nc2O)cc1)c1ccccn1
4. O=C1C(SCCO)=C(SCCO)C(=O)c2ccccc21
5. CCCCCOC(=O)Nc1nc(=O)n([C@@H]2O[C@H](C)[C@@H](O)[C@H]2O)cc1F

Result:
106
91.3
97.8
100
94.9

* * *

What cell viability was measured for each of the following?
- Test system: BV-173
- Method Summary: cell viability (% survival relative to DMSO control, bortezomib = 0%); higher = less cytotoxic
- Test Settings: 1 nM; 72 h
Numbers only, in %.

Consider the reported cell viability for these molecules:
O=c1cc(-c2ccccc2)oc2c1ccc1ccccc12    105
CCOC(=O)c1sc(NC(=O)c2ccco2)c(SC#N)c1C    100
Cc1ccc(-c2cc(C(F)(F)F)nn2-c2ccc(S(N)(=O)=O)cc2)cc1    104
CC(=O)Nc1nc(C)c(-c2ccc(Cl)c(S(=O)(=O)NCCO)c2)s1    119
Cc1cccc(Nc2cc(Cl)nc(SCC(=O)O)n2)c1C    106
Cc1c(Cl)cccc1S(=O)(=O)Nc1nc(CC(=O)N2CCN(C)CC2)cs1    102
CN(CCOc1ccc(Cc2sc(O)nc2O)cc1)c1ccccn1    96.7
C=CC(=O)c1ccc(O)cc1    82.2

Task: Using the record for O=c1c(-c2ccc(O)cc2)coc2cc(O[C@@H]3O[C@H](CO)[C@@H](O)[C@H](O)[C@H]3O)ccc12 , report its cell viability.
Result: 94

* * *

- Tested on: myeloid leukemia patient primary cells Pat.5
- Method Summary: cell viability (% survival relative to DMSO control); higher = less cytotoxic
- Test Settings: 100 nM; 72 h
Property: cell viability (%)
Give bare numbers, in %.

Consider the reported cell viability for these compounds:
O=C(O)CC[N+](=O)[O-] [3-nitropropionic acid]    81.8
C=CCN(C)CCCCCCOc1ccc(C(=O)c2ccc(Br)cc2)c(F)c1.O=C(O)/C=C/C(=O)O [Ro 48-8071 fumarate]    73.3
CN(CCOc1ccc(Cc2sc(O)nc2O)cc1)c1ccccn1 [Rosiglitazone]    91.7
C[C@]12C=CC(=O)C=C1CC[C@@H]1[C@@H]2[C@@H](O)C[C@@]2(C)[C@H]1CC[C@]2(O)C(=O)CO [Prednisolone]    21.7
O=c1cc(N2CCOCC2)oc2c(-c3ccccc3)cccc12    70.4

Could you report cell viability for every entry in the following list?
1. CO[C@H]1C[C@@H]2CC[C@@H](C)[C@@](O)(O2)C(=O)C(=O)N2CCCC[C@H]2C(=O)O[C@H]([C@H](C)C[C@@H]2CC[C@@H](OCCO)[C@H](OC)C2)CC(=O)[C@H](C)/C=C(\C)[C@@H](O)[C@@H](OC)C(=O)[C@H](C)C[C@H](C)/C=C/C=C/C=C/1C [Everolimus]
2. CC(=O)Nc1nc(C)c(-c2ccc(Cl)c(S(=O)(=O)NCCO)c2)s1 [PIK93]
3. Cc1[nH]nc(C(F)(F)F)c1Cc1sc2c(c1C(=O)N1C[C@](C)(O)CO1)c(=O)n(C)c(=O)n2C(C)C [AZD3965]

Result:
23
1.33
65

* * *

- Test system: myeloid leukemia patient primary cells Pat.7
- Method Summary: area under dose-response curve (viability, 1 nM-10 uM) (fraction (0-1)); higher = more sensitive
- Test Settings: 72 h
What area under dose-response curve was measured for each of the following?
Answers are plain numbers.

Consider the reported area under dose-response curve for these compounds:
CN1CCN(CCCN2c3ccccc3Sc3ccc(C(F)(F)F)cc32)CC1    0.517
CS(=O)(=O)N1CCN(Cc2cc3nc(-c4cccc5[nH]ncc45)nc(N4CCOCC4)c3s2)CC1    0.507
Cn1cc(-c2ccncc2)c(-c2ccc(OCc3ccc4ccccc4n3)cc2)n1    0.309
CC(C)(C)c1ccc(S(=O)(=O)NCc2ccc(C(=O)Nc3cccnc3)cc2)cc1    0.66

Turning now to a further record.
Task: Value wanted: area under dose-response curve (myeloid leukemia patient primary cells Pat.7) of entry C=CCN(C)CCCCCCOc1ccc(C(=O)c2ccc(Br)cc2)c(F)c1.O=C(O)/C=C/C(=O)O [Ro 48-8071 fumarate]
Result: 0.217

* * *

- Test system: myeloid leukemia patient primary cells Pat.1
- Method Summary: cell viability (% survival relative to DMSO control); higher = less cytotoxic
- Test Settings: 1000 nM; 72 h
What cell viability was measured for each of the following?
One number for each entry, in %.

Consider the reported cell viability for these molecules:
O=C(/C=C/c1ccc(O)c(O)c1)OCCc1ccccc1    63.3
Cc1cc2c(C(C)C)c(O)c(O)c(C=O)c2c(O)c1-c1c(C)cc2c(C(C)C)c(O)c(O)c(C=O)c2c1O    78.8
O=C(O)CC[N+](=O)[O-]    88.4
CN1CCN(CCCN2c3ccccc3Sc3ccc(C(F)(F)F)cc32)CC1    56
CO[C@H]1C[C@@H]2CC[C@@H](C)[C@@](O)(O2)C(=O)C(=O)N2CCCC[C@H]2C(=O)O[C@H]([C@H](C)C[C@@H]2CC[C@@H](OC(=O)C(C)(CO)CO)[C@H](OC)C2)CC(=O)[C@H](C)/C=C(\C)[C@@H](O)[C@@H](OC)C(=O)[C@H](C)C[C@H](C)/C=C/C=C/C=C/1C    70.1

Task: Using the record for O=c1cc(N2CCOCC2)oc2c(-c3ccccc3)cccc12 , report its cell viability.
Result: 63.6
